Readings of EC50 for the listed compounds
Test system: INS-1 cells
Assay: Cell viability assay: INS-1 β-cells co-treated with compound and tunicamycin (Tm), CellTiter-Glo intracellular ATP
Format: cell-based, rat
Conditions: INS-1 cells with Tm 0.15 μg/mL, ten 2-fold serial titration points, triplicate; read-out: EC50 (μM), concentration that reaches half-maximal activity for INS-1 cell viability
Protocol: INS-1 cells were cultured in RPMI 1640 medium (Corning) supplemented with 10% FBS (Atlanta Biologicals), 10 mM HEPES (Gibco-Life Technologies), 1 mM sodium pyruvate (Corning), 50 μM 2-mercaptoethanol (Sigma-Aldrich), and antibiotics (100 UI/mL penicillin and 100 µg/mL streptomycin; Corning) and maintained in a humidified 5% CO2 atmosphere at 37° C. […]

[
  {
    "smiles-text": "CCc1ccc(C(=O)NCC(=O)NCc2ccc(C(F)(F)F)cc2)cc1",
    "EC50": "45 µM"
  },
  {
    "smiles-text": "O=C(CNC(=O)c1ccccc1)NCc1ccc(C(F)(F)F)cc1",
    "EC50": "43 µM"
  },
  {
    "smiles-text": "Cc1ccc(C)c(CNC(=O)CNC(=O)c2cccc(Cl)c2C)c1",
    "EC50": "18 µM"
  }
]

---

Readings of Emax for the listed molecules
Test system: INS-1 cells
Test: Cell viability assay: INS-1 β-cells co-treated with compound and tunicamycin (Tm), CellTiter-Glo intracellular ATP
Type: cell-based, rat
Details: Rattus norvegicus, INS1, 72 h, % rescue from Tm (0.15 μg/mL)-induced reduction of INS-1 cell viability, intracellular ATP, 72 h; Tm alone = 0%, DMSO control without Tm = 100%; read-out: Max Activity (%)
property-label: Emax (%)

[
  {
    "molecule": "COc1cc(CNC(=O)CNC(=O)c2cccc(Cl)c2C)ccc1O [Compound 5h]",
    "result-number": 100
  },
  {
    "molecule": "Cc1c(Cl)cccc1C(=O)NCC(=O)NCc1ccc(C(F)(F)F)cc1 [Compound 5g]",
    "result-number": 88
  },
  {
    "molecule": "Cc1ccc(C)c(CNC(=O)CNC(=O)c2cccc(Cl)c2C)c1 [Compound 5a]",
    "result-number": 45
  },
  {
    "molecule": "O=C(CNC(=O)c1ccccc1)NCc1ccc(C(F)(F)F)cc1 [Compound 5j]",
    "result-number": 35
  },
  {
    "molecule": "Cc1c(Cl)cccc1C(=O)NCC(=O)NCc1cccc(C(F)(F)F)c1 [Compound 5i]",
    "result-number": 46
  },
  {
    "molecule": "Cc1c(Cl)cccc1C(=O)NCC(=O)Nc1ccc2nc[nH]c2c1 [Compound 5c]",
    "result-number": 0
  },
  {
    "molecule": "CCc1ccc(C(=O)NCC(=O)NCc2ccc(C(F)(F)F)cc2)cc1 [Compound 5k]",
    "result-number": 42
  }
]

---

Tested on: INS-1 cells
Test: Cell viability assay: INS-1 β-cells co-treated with compound and tunicamycin (Tm), CellTiter-Glo intracellular ATP
Assay type: cell-based, rat
Conditions: Rattus norvegicus, INS1, 72 h, % rescue from Tm (0.15 μg/mL)-induced reduction of INS-1 cell viability, intracellular ATP, 72 h; Tm alone = 0%, DMSO control without Tm = 100%; read-out: Max Activity (%)
Method: INS-1 cells were cultured in RPMI 1640 medium (Corning) supplemented with 10% FBS (Atlanta Biologicals), 10 mM HEPES (Gibco-Life Technologies), 1 mM sodium pyruvate (Corning), 50 μM 2-mercaptoethanol (Sigma-Aldrich), and antibiotics (100 UI/mL penicillin and 100 µg/mL streptomycin; Corning) and maintained in a humidified 5% CO2 atmosphere at 37° C. […]
Could you please mark Condition met for values of Emax below 30% and Condition not met for values at or above it?

[
  {
    "compound": "O=C(CNC(=O)c1cccc(O)c1)NCc1ccc(C(F)(F)F)cc1",
    "experimental-target": "INS-1 cells",
    "assigned-label": "Condition not met"
  },
  {
    "compound": "O=C(CNC(=O)c1ccc(F)cc1)NCc1ccc(C(F)(F)F)cc1",
    "experimental-target": "INS-1 cells",
    "assigned-label": "Condition met"
  },
  {
    "compound": "Cc1c(Cl)cccc1C(=O)NCC(=O)NCc1ccccn1",
    "experimental-target": "INS-1 cells",
    "assigned-label": "Condition met"
  },
  {
    "compound": "COc1cc(C(=O)NCC(=O)NCc2ccc(C(F)(F)F)cc2)ccc1O",
    "experimental-target": "INS-1 cells",
    "assigned-label": "Condition not met"
  },
  {
    "compound": "Cc1c(Cl)cccc1C(=O)NC(C)C(=O)NCc1ccc(C(F)(F)F)cc1 (stereo not drawn)",
    "experimental-target": "INS-1 cells",
    "assigned-label": "Condition not met"
  }
]

Hey, just so you know, these numbers are from patent US11999677B2.
